Target: CCT/TRiC (Saccharomyces cerevisiae)
Construct: gene CCT2; native complex from yeast cells, two back-to-back rings each of eight distinct subunits CCT1-CCT8; CCT2 mutations introduced in the chromosomal gene
Test: stopped-flow transient kinetics of phosphate release (labelled phosphate-binding protein), burst-phase rates fit to conformational selection
Type: biochemical
Conditions: 25 °C, pH 7.5 Tris-HCl, 10 mM MgCl2, 50 mM KCl, 20% glycerol, 1 mM DTT; stronger of two burst phases; read-out: ATP affinity (Kd)
pKd: −log10 of the molar value.
value.type: pKd

-- ask Consider the compound shown here: Nc1ncnc2c1ncn2[C@@H]1O[C@H](COP(=O)(O)OP(=O)(O)OP(=O)(O)O)[C@@H](O)[C@H]1O What is its recorded pKd?
-- reply ~4.57
